Measured normalised response values are reported for all entries that follow.
Test system: SK-BR-3
Assay: normalised response (% of control), CellTiter-Glo; higher = more viable cells (100 = DMSO, 0 = benzethonium chloride kill control)
Details: incubation time: 72 h
Numeric answer only, unit % assumed.

Examples with their reported normalised response follow.
Quick one: normalised response of Cn1c(Nc2ccc(C(F)(F)F)cc2)nc2cc(Oc3ccnc(-c4ncc(C(F)(F)F)[nH]4)c3)ccc21 [RAF265] (0.1 nM) ?
110

Quick one: normalised response of CN(N=O)C(=O)N[C@@H](C=O)[C@@H](O)[C@H](O)[C@H](O)CO [Streptozocin] (1000 nM) ?
100

Further cases:
Quick one: normalised response of N.N.[Cl][Pt][Cl] [Cisplatin] (1 nM) ?
98.7
